FYI, the data here is from paper PMC2756588.

Biological target: T1, Sla1-2, P32790
T1 sequence (P32790 60-140, looked up): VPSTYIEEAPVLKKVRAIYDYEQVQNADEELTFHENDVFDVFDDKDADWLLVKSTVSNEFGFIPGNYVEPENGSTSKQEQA
Assay: SPOT array
Details: median of control spots 712

| Binder | SPOT intensity |
| --- | --- |
| VRTRRRPPPPPIPST | 4 |
| GDHPKGPPPPPPPDE | 0 |
| SNRRPVPRRPSQPLN | 0 |
| MAMRPIPPLPTESEY | 0 |
| EAEEAAPQLPSRSSA | 0 |
| PPLPRAPPVPPATFE | 1 |
| KKAPPPVVKPKPRNF | 2 |
| LRIKRKPVQTFFEFI | 0 |
| NRLRKRLNLPSEISI | 1 |
| IFLRISINFPLNYPN | 12 |
| RRRRRPHRIERPLSN | 0 |
| RLPAPPPPPRRGPAP | 0 |
| KKIRLIFTYPSTVGR | 6 |
| QTMRQAPKRPDADVA | 19 |
| APKHAPPPVPNETDN | 0 |
